// data source = patent US20210032351A1

# MEASURED ON: T1, human EGFRvIII-hFc protein (human, UniProt P00533 25-645)
# T1 construct: extracellular domain; also called immunogen A; hFc-tagged EGFRvIII protein; not shown: human IgG Fc fragment (hFc) of the pCpC vector
# EXPERIMENT DESCRIPTION: ELISA, EGFRvIII-hFc coated
The following binders are listed with their measured OD450 nm at 1 nM antibody values.

BINDER	OD450 nm at 1 nM antibody / OD450
Chimeric antibody 7E5 (antibody, human IgG1, V domains shown, also called clone 7E5-2A9) VH: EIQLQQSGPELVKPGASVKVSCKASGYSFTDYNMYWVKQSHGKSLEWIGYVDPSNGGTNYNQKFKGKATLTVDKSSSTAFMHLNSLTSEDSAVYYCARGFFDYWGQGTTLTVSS VL: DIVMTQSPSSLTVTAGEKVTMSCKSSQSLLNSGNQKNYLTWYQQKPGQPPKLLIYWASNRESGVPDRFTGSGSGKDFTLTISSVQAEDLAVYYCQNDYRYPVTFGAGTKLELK	3.45
Chimeric antibody 64F1 (antibody, human IgG1, V domains shown, also called clone 64F1F8) VH: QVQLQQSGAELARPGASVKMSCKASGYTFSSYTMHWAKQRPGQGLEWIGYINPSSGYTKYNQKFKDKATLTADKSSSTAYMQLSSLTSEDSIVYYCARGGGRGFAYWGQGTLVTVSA VL: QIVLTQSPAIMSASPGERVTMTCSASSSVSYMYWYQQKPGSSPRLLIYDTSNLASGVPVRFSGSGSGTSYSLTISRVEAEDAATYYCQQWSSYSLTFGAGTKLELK	3.72
Chimeric antibody 75G7 (antibody, human IgG1, V domains shown, also called c75G7C6; chimeric antibody c75G7C6) VH: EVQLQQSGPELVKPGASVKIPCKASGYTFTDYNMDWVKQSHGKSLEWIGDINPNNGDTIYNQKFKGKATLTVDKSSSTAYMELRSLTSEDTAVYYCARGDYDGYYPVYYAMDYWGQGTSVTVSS VL: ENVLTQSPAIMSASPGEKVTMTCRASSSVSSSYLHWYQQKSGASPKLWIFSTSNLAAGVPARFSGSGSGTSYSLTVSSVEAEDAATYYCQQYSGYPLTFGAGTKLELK	2.69
Chimeric antibody 63A10 (antibody, human IgG1, V domains shown, also called c63A10A7; chimeric antibody c63A10A7) VH: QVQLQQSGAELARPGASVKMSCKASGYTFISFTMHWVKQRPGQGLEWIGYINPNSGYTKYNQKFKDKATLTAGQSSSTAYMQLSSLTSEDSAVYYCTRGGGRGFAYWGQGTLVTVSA VL: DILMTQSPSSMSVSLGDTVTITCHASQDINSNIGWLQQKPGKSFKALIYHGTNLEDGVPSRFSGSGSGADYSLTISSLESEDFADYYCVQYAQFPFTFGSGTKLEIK	3.33
